- Test system: NCI-H1734
- ASSAY COMMENT: relative viability (nuclei count vs DMSO), 5 days (fraction); higher = more cells survive
- PROTOCOL CONDITIONS: first compound 2 µM
# relative viability listing for each entry below

| MOLECULE | TGT | relative viability |
| --- | --- | --- |
| Cc1csc(=NC2CCCCC2)n1/N=C/c1ccc(O)c(O)c1O [MIM1] + C[C@@H](Oc1cc(-c2cnn(C3CCNCC3)c2)cnc1N)c1c(Cl)ccc(F)c1Cl [Crizotinib] (partner 1 µM) | NCI-H1734 | 0.596 |
| Cc1csc(=NC2CCCCC2)n1/N=C/c1ccc(O)c(O)c1O [MIM1] + CC1(C)CCC(c2ccc(Cl)cc2)=C(CN2CCN(c3ccc(C(=O)NS(=O)(=O)c4ccc(N[C@H](CCN5CCOCC5)CSc5ccccc5)c(S(=O)(=O)C(F)(F)F)c4)cc3)CC2)C1 [Navitoclax] (partner 0.5 µM) | NCI-H1734 | 0.783 |
| Cc1csc(=NC2CCCCC2)n1/N=C/c1ccc(O)c(O)c1O [MIM1] + COc1cc2c(Oc3ccc(NC(=O)C4(C(=O)Nc5ccc(F)cc5)CC4)cc3F)ccnc2cc1OCCCN1CCOCC1 [Foretinib] (partner 0.25 µM) | NCI-H1734 | 0.772 |
| CN1CCN(CCOc2cc(OC3CCOCC3)c3c(Nc4c(Cl)ccc5c4OCO5)ncnc3c2)CC1 [Saracatinib] + CC1(C)CCC(c2ccc(Cl)cc2)=C(CN2CCN(c3ccc(C(=O)NS(=O)(=O)c4ccc(N[C@H](CCN5CCOCC5)CSc5ccccc5)c(S(=O)(=O)C(F)(F)F)c4)cc3)CC2)C1 [Navitoclax] (partner 0.5 µM) | NCI-H1734 | 0.697 |
